Recorded measurements of DC50, one per entry
molecular target: BRG1 (Homo sapiens, UniProt P51532); construct: either BRM primary antibody (Cell signaling Cat #11966) or BRG primary antibody (Abcam, ab 110641); endogenous in cells; host or cells: SW1573; assay: Immunofluorescence assay for BRG1 degradation in SW1573 cells; type: cell-based; conditions: 20 hours incubation, immunofluorescence mean nuclear signal, read-out: BRG1 IF Degradation IC50
Sequence (P51532 whole entry): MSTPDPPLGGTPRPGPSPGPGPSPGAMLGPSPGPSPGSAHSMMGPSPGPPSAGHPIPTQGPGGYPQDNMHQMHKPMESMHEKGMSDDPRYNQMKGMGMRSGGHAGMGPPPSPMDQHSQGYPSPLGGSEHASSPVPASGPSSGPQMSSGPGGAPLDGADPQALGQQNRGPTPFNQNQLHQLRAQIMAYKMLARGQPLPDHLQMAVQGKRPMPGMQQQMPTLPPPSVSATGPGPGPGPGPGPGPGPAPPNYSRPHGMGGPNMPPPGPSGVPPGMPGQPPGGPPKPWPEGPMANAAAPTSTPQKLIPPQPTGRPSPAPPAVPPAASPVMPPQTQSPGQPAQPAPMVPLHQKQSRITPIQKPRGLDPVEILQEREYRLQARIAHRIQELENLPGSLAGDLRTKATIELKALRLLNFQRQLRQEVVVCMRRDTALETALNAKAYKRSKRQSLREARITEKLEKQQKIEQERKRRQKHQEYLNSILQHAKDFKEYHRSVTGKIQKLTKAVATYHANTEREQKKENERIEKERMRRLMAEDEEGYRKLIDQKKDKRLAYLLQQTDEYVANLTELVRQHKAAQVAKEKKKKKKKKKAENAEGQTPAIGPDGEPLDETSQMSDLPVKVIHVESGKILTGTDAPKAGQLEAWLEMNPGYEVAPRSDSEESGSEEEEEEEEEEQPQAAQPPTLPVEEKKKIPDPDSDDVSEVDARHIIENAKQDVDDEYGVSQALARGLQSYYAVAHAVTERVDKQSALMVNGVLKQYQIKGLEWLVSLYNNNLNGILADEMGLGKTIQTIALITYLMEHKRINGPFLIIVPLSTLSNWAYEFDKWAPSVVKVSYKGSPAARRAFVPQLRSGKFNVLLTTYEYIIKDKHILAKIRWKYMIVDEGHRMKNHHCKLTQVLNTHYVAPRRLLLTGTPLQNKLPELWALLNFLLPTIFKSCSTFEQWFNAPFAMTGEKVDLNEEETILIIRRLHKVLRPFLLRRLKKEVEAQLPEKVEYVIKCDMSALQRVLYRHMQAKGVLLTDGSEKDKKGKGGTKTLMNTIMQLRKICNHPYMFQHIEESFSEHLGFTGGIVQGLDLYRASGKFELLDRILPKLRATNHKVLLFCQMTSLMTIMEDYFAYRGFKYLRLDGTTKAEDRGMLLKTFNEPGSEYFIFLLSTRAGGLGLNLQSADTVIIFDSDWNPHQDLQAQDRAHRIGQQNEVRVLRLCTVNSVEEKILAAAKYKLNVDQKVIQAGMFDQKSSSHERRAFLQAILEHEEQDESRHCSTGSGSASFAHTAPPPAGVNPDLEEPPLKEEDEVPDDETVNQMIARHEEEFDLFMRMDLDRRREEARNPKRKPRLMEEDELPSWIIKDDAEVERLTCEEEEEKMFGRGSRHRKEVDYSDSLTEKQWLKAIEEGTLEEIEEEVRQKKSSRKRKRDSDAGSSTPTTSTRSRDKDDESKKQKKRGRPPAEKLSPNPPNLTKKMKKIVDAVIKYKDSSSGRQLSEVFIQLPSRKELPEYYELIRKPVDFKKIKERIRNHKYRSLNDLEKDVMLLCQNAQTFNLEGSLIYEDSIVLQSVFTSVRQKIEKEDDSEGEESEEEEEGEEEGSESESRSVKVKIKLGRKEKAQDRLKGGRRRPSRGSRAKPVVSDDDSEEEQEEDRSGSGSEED
Measure Name: DC50

# Molecule, Assayed Target, Measure Name, Reported Measurement
data = [
    ("COC1CN(CC#Cc2cc(N3C4CCC3CN(c3cc(-c5ccccc5O)nnc3N)C4)ccn2)C1", "BRG1 (Homo sapiens, UniProt P51532)", "DC50", "10 to 100 nM"),
    ("Nc1nnc(-c2ccccc2O)cc1N1CC2CCC(C1)N2c1ccnc(C#CCN2CCC[C@@H]2CO)c1", "BRG1 (Homo sapiens, UniProt P51532)", "DC50", "10 to 100 nM"),
    ("NCC(=O)NCCCc1cc(N2C3CCC2CN(c2cc(-c4ccccc4O)nnc2N)C3)ccn1", "BRG1 (Homo sapiens, UniProt P51532)", "DC50", "10 to 100 nM"),
    ("Nc1nnc(-c2ccccc2O)cc1N1CC2CCC(C1)N2c1ccnc(C#CCN2Cc3cccnc3C2)c1", "BRG1 (Homo sapiens, UniProt P51532)", "DC50", "> 100 nM"),
    ("Nc1nnc(-c2ccccc2O)cc1N1CC2CCC(C1)N2c1ccnc(C#CCN2CCc3ccccc3CC2)c1", "BRG1 (Homo sapiens, UniProt P51532)", "DC50", "10 to 100 nM"),
    ("Nc1nnc(-c2ccccc2O)cc1N1CC2CCC(C1)N2c1ccnc(C#CCN2C3COCC2CC(F)C3)c1 (stereo not drawn)", "BRG1 (Homo sapiens, UniProt P51532)", "DC50", "10 to 100 nM"),
]

====

Measured DC50 values are reported for all entries that follow.
target: BRG1 (Homo sapiens, UniProt P51532); construct: either BRM primary antibody (Cell signaling Cat #11966) or BRG primary antibody (Abcam, ab 110641); endogenous in cells; host or cells: SW1573; experiment: Immunofluorescence assay for BRG1 degradation in SW1573 cells; type: cell-based; settings: 20 hours incubation, immunofluorescence mean nuclear signal, read-out: BRG1 IF Degradation IC50

# Molecule, Assayed Target, DC50
measured = [
    ("Nc1nnc(-c2ccccc2O)cc1N1CC2CCC(C1)N2c1ccnc(C#CCN2CCC[C@@H]3CC[C@@H]32)c1", "BRG1 (Homo sapiens, UniProt P51532)", "< 0.01 µM"),
    ("Nc1nnc(-c2ccccc2O)cc1N1CC2CCC(C1)N2c1ccnc(C#CCN2C3CCC2(CO)CC3)c1", "BRG1 (Homo sapiens, UniProt P51532)", "> 0.1 µM"),
    ("Nc1nnc(-c2ccccc2O)cc1N1CC2CCC(C1)N2c1ccnc(C#CCN2CCCC(F)(F)C(F)C2)c1 (stereo not shown)", "BRG1 (Homo sapiens, UniProt P51532)", "0.01 to 0.1 µM"),
    ("CC1CCN(CC#Cc2cc(N3C4CCC3CN(c3cc(-c5ccccc5O)nnc3N)C4)ccn2)CC1", "BRG1 (Homo sapiens, UniProt P51532)", "< 0.01 µM"),
    ("Nc1nnc(-c2ccccc2O)cc1N1CC2CCC(C1)N2c1ccnc(C#CCN2CCCOCC23CC3)c1", "BRG1 (Homo sapiens, UniProt P51532)", "> 0.1 µM"),
    ("Nc1nnc(-c2ccccc2O)cc1N1CC2CCC(C1)N2c1ccnc(C#CCN2CC3(CCOCC3)C2)c1", "BRG1 (Homo sapiens, UniProt P51532)", "< 0.01 µM"),
    ("Nc1nnc(-c2ccccc2O)cc1N1CC2CCC(C1)N2c1ccnc(C#CCN2CC(c3ccccc3)C2)c1", "BRG1 (Homo sapiens, UniProt P51532)", "0.01 to 0.1 µM"),
]

====

target: BRM (Homo sapiens); test: HiBIT nanoluciferase complementation screen for BRM degraders; type: cell-based; details: compound 1 μM, 18 hours, BRM-HiBIT KI Hela cells; luminescence normalized: DMSO only = 0%, no cells = −100%
Sequence (P51531 whole entry): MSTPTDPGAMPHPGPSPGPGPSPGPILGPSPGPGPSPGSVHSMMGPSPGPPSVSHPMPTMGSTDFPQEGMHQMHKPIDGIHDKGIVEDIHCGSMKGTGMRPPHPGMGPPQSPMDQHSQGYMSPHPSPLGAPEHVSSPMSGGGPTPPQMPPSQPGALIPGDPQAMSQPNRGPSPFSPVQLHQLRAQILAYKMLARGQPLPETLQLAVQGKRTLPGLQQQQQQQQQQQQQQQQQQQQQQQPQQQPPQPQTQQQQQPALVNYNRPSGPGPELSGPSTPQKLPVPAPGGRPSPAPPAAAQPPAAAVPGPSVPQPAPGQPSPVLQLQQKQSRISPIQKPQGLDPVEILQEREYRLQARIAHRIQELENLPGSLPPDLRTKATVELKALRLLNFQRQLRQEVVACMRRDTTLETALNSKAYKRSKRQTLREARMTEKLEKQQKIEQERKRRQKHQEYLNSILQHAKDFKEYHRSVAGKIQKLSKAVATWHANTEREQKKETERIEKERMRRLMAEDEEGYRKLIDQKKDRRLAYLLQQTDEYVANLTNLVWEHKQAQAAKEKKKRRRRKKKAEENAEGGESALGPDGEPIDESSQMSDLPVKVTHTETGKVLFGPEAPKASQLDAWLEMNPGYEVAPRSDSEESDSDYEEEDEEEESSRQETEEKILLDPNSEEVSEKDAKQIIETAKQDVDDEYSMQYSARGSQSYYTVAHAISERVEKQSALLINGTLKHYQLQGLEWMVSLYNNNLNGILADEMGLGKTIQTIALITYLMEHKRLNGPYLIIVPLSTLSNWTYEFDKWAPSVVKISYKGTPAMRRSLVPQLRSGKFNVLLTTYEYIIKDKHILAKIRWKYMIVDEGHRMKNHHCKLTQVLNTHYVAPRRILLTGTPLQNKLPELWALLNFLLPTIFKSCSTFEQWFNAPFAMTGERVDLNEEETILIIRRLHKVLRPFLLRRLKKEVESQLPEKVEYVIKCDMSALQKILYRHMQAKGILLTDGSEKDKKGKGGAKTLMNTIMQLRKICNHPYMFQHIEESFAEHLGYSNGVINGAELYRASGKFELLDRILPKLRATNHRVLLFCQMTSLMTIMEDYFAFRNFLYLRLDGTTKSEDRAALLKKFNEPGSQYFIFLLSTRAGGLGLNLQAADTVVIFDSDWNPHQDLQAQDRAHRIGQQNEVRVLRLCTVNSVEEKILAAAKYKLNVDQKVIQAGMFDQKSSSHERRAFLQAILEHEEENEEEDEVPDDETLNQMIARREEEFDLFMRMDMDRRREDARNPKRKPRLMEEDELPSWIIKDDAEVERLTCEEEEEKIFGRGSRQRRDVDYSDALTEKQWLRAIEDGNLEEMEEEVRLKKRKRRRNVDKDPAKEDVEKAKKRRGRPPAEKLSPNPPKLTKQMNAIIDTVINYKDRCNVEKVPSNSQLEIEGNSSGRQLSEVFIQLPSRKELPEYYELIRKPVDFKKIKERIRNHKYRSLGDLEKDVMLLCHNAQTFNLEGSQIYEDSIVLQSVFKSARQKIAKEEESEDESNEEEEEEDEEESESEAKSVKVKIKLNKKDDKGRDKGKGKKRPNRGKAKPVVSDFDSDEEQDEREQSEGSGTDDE
This listing pairs molecules with measured Median HiBiT activity 1 μM.

# Smiles Notation, Units Symbol, Median HiBiT activity 1 μM
records = [
    ("Nc1nnc(-c2ccccc2O)cc1N1CC2CCC(C1)N2c1ccnc(C#CCN2CCNCC2=O)c1", "%", "−50.554"),
    ("Nc1nnc(-c2ccccc2O)cc1N1CC2CCC(C1)N2c1ccnc(C#CC2CCOCC2)c1", "%", "−30.6701"),
    ("C[C@@H](N)C#Cc1cc(N2C3CCC2CN(c2cc(-c4ccccc4O)nnc2N)C3)ccn1", "%", "−29.3818"),
    ("Nc1nnc(-c2ccccc2O)cc1N1CC2CCC(C1)N2c1ccnc(C#CCN2CCOCC2)c1", "%", "−50.6553"),
]

====

Molecular target: BRG1 (Homo sapiens)
Construct: either BRM primary antibody (Cell signaling Cat #11966) or BRG primary antibody (Abcam, ab 110641); endogenous in cells; host or cells: SW1573
Assay: Immunofluorescence assay for BRG1 degradation in SW1573 cells
Format: cell-based
Settings: SW1573, 20 h, 20 hours incubation, normalized to a known degrader control, read-out: BRG1 IF Degradation Sinf (%)
Protocol: Example B-2: Immunofluorescence Assay for BRM and BRG1 Degraders SW1573 cells were seeded at 3000 cells/well in 384 well plates. The next day, compounds were added using an Echo dispenser. […] Harmony software (Perking Elmer) was used to quantify the mean nuclear signaling intensity of BRM or BRG signaling per cell in each well. Dose responses were determined from the concentration dependent response of mean nuclear signal intensity with data normalized to a known degrader control. […]

# Molecule, Dmax
measured = [
    ("Nc1nnc(-c2ccccc2O)cc1N1CC2CCC(C1)N2c1ccnc(C#CCN2CCC(F)C2)c1 (centres unmarked) [Compound 133]", "0 to 30%"),
    ("Nc1nnc(-c2ccccc2O)cc1N1CC2CCC(C1)N2c1ccnc(C#CCN2CC(c3ccncn3)C2)c1 [Compound 231]", "30 to 70%"),
    ("Nc1nnc(-c2ccccc2O)cc1N1CC2CCC(C1)N2c1ccnc(C#CCN2CCC(N)C2)c1 (centres unmarked) [Compound 15]", "0 to 30%"),
    ("COC1CCCN(CC#Cc2cc(N3C4CCC3CN(c3cc(-c5ccccc5O)nnc3N)C4)ccn2)C1 (centres unmarked) [Compound 37]", "30 to 70%"),
    ("CC[C@H]1COCCN1CC#Cc1cc(N2C3CCC2CN(c2cc(-c4ccccc4O)nnc2N)C3)ccn1 [Compound 64]", "0 to 30%"),
    ("CC1(C)CCN1CC#Cc1cc(N2C3CCC2CN(c2cc(-c4ccccc4O)nnc2N)C3)ccn1 [Compound 187]", "30 to 70%"),
    ("CC1(C)CN(CC#Cc2cc(N3C4CCC3CN(c3cc(-c5ccccc5O)nnc3N)C4)ccn2)C1 [Compound 135]", "30 to 70%"),
    ("CC(C)(N)C#Cc1cc(N2C3CCC2CN(c2cc(-c4ccccc4O)nnc2N)C3)ccn1 [Compound 36]", "30 to 70%"),
]

====

Reported values of DC50 for individual entries
target: BRG1 (Homo sapiens, UniProt P51532); construct: either BRM primary antibody (Cell signaling Cat #11966) or BRG primary antibody (Abcam, ab 110641); endogenous in cells; host or cells: SW1573; assay: Immunofluorescence assay for BRG1 degradation in SW1573 cells; assay type: cell-based; details: 20 hours incubation, immunofluorescence mean nuclear signal, read-out: BRG1 IF Degradation IC50

# Compound, DC50
data = [
    ("COC(=O)C1CCS(=O)(=O)C12CN(CC#Cc1cc(N3C4CCC3CN(c3cc(-c5ccccc5O)nnc3N)C4)ccn1)C2 (stereo not shown)", "> 100 nM"),
    ("CCOC1CN(CC#Cc2cc(N3C4CCC3CN(c3cc(-c5ccccc5O)nnc3N)C4)ccn2)C1", "< 10 nM"),
    ("Nc1nnc(-c2ccccc2O)cc1N1CC2CCC(C1)N2c1ccnc(C#CCN2CCCCC2CO)c1 (stereo not shown)", "10 to 100 nM"),
    ("CC1CC(O)CCN(CC#Cc2cc(N3C4CCC3CN(c3cc(-c5ccccc5O)nnc3N)C4)ccn2)C1 (stereo not shown)", "< 10 nM"),
    ("Oc1ccccc1-c1cc2c(nn1)NC[C@@H]1CN(c3ccnc(C#CCN4CCCCCC4)c3)CCN21 (single isomer, unassigned)", "< 10 nM"),
    ("Nc1nnc(-c2ccccc2O)cc1N1CC2CCC(C1)N2c1ccnc(C#CCN2CC3CNCC3C2)c1 (stereo not shown)", "> 100 nM"),
    ("Nc1nnc(-c2ccccc2O)cc1N1CC2CCC(C1)N2c1ccnc(C#CCC2CCCCN2)c1 (stereo not shown)", "10 to 100 nM"),
]
